- Protocol Text: Cytotoxicity against human Raji cells assessed as cell viability at 1000 molar ratio after 48 hrs by trypan blue staining method
- Assay type: cell-based
- Cond: read-out: Activity
// values below are reported viability at 48 h, 1000 molar ratio
// return numeric value only (unit: %, not printed)

Sample records with viability at 48 h, 1000 molar ratio:
* CCCCCC(=O)OC[C@H](CO)O[C@@H]1O[C@H](COC(=O)CCCCC)[C@@H](O)[C@H](O)[C@H]1O | 70
* CCCCCCCCCCCCCCCCCC(=O)OCC(COC(=O)CCCCCCCCCCCCCCCCC)O[C@@H]1O[C@H](CO)[C@@H](O)[C@H](O)[C@H]1O | 60
* CCCCCCCCCCCCCCCCCC(=O)OCC(COC(=O)CCCCCCCCCCCCCCCCC)O[C@@H]1O[C@H](CS(=O)(=O)[O-])[C@@H](O)[C@H](O)[C@H]1O.[Na+] | 50
* CCCCCC(=O)OCC(COC(=O)CCCCC)O[C@@H]1O[C@H](CO)[C@@H](O)[C@H](O)[C@H]1O | 60
* CCCCCCCCCCCC(=O)OCC(COC(=O)CCCCCCCCCCC)O[C@@H]1O[C@H](CS(=O)(=O)[O-])[C@@H](O)[C@H](O)[C@H]1O.[Na+] | 50
* CCCCCCCCCCCC(=O)OCC(COC(=O)CCCCCCCCCCC)O[C@@H]1O[C@H](CO)[C@@H](O)[C@H](O)[C@H]1O | 60
* CCCCCC(=O)OCC(COC(=O)CCCCC)O[C@@H]1O[C@H](CS(=O)(=O)[O-])[C@@H](O)[C@H](O)[C@H]1O.[Na+] | 50

Please look at the following compound next.
Query block: // Input: CCCCCC(=O)OCCO[C@@H]1O[C@H](CO)[C@H](O)[C@H](O)[C@H]1O . Output its viability at 48 h, 1000 molar ratio only.
Result block: 70

----------
// values below are reported viability at 48 h, 500 molar ratio
- Protocol Text: Cytotoxicity against human Raji cells assessed as cell viability at 500 molar ratio after 48 hrs by trypan blue staining method
- Type: cell-based
- Cond: read-out: Activity
// return numeric value only (unit: %, not printed)

Sample records with viability at 48 h, 500 molar ratio:
- CCCCCC(=O)OCCO[C@@H]1O[C@H](CO)[C@H](O)[C@H](O)[C@H]1O: 80
- CCCCCCCCCCCC(=O)OCC(COC(=O)CCCCCCCCCCC)O[C@@H]1O[C@H](CO)[C@@H](O)[C@H](O)[C@H]1O: 70
- CCCCCC(=O)OC[C@H](CO)O[C@@H]1O[C@H](COC(=O)CCCCC)[C@@H](O)[C@H](O)[C@H]1O: 80

Please look at the following compound next.
Query block: // Input: CCCCCC(=O)OCC(COC(=O)CCCCC)O[C@@H]1O[C@H](CO)[C@@H](O)[C@H](O)[C@H]1O . Output its viability at 48 h, 500 molar ratio only.
Result block: 70
